Reference for the values: patent US20170362301A1

# assay_target: EGFR (form in the assay not stated) (human, UniProt P00533 25-645, limits assumed)
# test_details: ELISA, NEM conjugate 100 nM

{"columns": ["binder", "binding ratio vs parent P54AR4-83v2 / ratio"],
 "data": [
  ["P54AR4-83v2 L47C, NEM conjugate (designed binder, NEM on Cys 47, His-tagged) LPAPKNLVVSEVTEDSARLSWDDPWAFYESFLIQYQESEKVGEAIVCTVPGSERSYDLTGLKPGTEYTVSIYGVHNVYKDTNMRGLPLSAIFTT", 1.02],
  ["P54AR4-83v2 V74C, NEM conjugate (designed binder, NEM on Cys 74, His-tagged) LPAPKNLVVSEVTEDSARLSWDDPWAFYESFLIQYQESEKVGEAIVLTVPGSERSYDLTGLKPGTEYTVSIYGCHNVYKDTNMRGLPLSAIFTT", 1.01]
]}
